The reported measurements were obtained from patent US20250171379A1.

- TEST TARGET: T1, human prostate-specific membrane antigen (PSMA) (human, UniProt Q04609 1-750)
- T1 construct: whole, on cells; also called PSMA+ C4-2B cells
- T1 sequence (Q04609 whole entry): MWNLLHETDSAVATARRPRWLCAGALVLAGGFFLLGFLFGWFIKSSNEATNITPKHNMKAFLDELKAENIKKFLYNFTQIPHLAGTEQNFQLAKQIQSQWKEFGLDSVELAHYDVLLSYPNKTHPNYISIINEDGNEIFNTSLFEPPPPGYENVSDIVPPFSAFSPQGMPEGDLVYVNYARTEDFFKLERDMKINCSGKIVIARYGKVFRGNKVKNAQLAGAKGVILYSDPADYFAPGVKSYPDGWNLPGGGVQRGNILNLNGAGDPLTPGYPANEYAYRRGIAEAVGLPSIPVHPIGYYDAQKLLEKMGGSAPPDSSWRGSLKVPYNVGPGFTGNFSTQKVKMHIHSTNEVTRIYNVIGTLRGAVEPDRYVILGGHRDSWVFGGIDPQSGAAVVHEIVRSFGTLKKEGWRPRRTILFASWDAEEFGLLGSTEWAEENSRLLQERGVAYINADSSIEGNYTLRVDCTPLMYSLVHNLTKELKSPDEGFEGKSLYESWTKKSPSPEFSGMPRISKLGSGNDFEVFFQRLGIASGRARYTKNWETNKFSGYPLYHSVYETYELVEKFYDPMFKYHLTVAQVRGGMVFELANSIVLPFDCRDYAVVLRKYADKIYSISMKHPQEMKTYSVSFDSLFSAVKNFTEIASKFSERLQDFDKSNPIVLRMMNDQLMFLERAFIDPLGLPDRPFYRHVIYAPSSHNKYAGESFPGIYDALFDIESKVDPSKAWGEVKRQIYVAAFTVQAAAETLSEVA
- ASSAY PROTOCOL: flow cytometry on C4-2B cells (PSMA+), AlexaFluor647 anti-human IgG secondary, MFI curve fit
The entries below are paired with their reported pEC50.
Formally, pEC50 is defined as -log10 of the concentration c, with c in mol/L.

Consider the reported pEC50 for these binders:
anti-PSMA mAb-DFO (site specific MTG azide clicked with DFO-DBCO) (antibody, human IgG4 S228P, kappa, F234A L235A, V domains shown, deglycosylated with PNGase F; 3-azido propylamine at Gln295 by microbial transglutaminase, clicked with unchelated DFO-DBCO; CAR 2, Human IgG4; also called anti-PSMA mAb (MTG) mAb-DFO) VH: EVQLLESGGGLVQPGGSLRLSCAASGFTFKSDAMHWVRQAPGKGLEWVSEISGSGGYTNYADSVKGRFTISRDNSKNTLYLQMNSLRAEDTAVYYCARDSYDSSLYVGDYFDYWGQGTLVTVSS VL: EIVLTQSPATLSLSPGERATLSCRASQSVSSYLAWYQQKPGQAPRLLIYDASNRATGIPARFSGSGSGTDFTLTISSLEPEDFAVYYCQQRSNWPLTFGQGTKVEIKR = 8.35
anti-PSMA mAb-azide (random azide) (antibody, human IgG4 S228P, kappa, F234A L235A, V domains shown, random conjugation of NHS-PEG4-azide to amines of the antibody, CAR 2.4, Human IgG4; sites of modification random, not located; also called anti-PSMA mAb (random azide) mAb-azide) VH: EVQLLESGGGLVQPGGSLRLSCAASGFTFKSDAMHWVRQAPGKGLEWVSEISGSGGYTNYADSVKGRFTISRDNSKNTLYLQMNSLRAEDTAVYYCARDSYDSSLYVGDYFDYWGQGTLVTVSS VL: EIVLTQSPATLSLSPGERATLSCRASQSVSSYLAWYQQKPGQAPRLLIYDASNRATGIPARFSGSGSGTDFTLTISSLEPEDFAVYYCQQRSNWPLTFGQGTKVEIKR = 8.33
anti-PSMA mAb-DOTA (random azide clicked with DOTA-GA-DBCO) (antibody, human IgG4 S228P, kappa, F234A L235A, V domains shown, random NHS-PEG4-azide on amines, clicked with unchelated DOTA-GA-DBCO, CAR 2.4, Human IgG4; also called anti-PSMA mAb (random azide) mAb-DOTA) VH: EVQLLESGGGLVQPGGSLRLSCAASGFTFKSDAMHWVRQAPGKGLEWVSEISGSGGYTNYADSVKGRFTISRDNSKNTLYLQMNSLRAEDTAVYYCARDSYDSSLYVGDYFDYWGQGTLVTVSS VL: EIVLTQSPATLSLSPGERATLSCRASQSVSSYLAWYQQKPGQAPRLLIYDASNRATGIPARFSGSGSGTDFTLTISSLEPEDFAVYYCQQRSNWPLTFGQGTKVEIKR = 8.27
anti-PSMA mAb-azide (site specific glycan) (antibody, human IgG4 S228P, kappa, F234A L235A, V domains shown, Fc glycan trimmed with GlycINATOR to the innermost GlcNAc, GalNAz azido sugar added with GalT; CAR exactly 2, Human IgG4; also called anti-PSMA mAb (glycan) mAb-azide) VH: EVQLLESGGGLVQPGGSLRLSCAASGFTFKSDAMHWVRQAPGKGLEWVSEISGSGGYTNYADSVKGRFTISRDNSKNTLYLQMNSLRAEDTAVYYCARDSYDSSLYVGDYFDYWGQGTLVTVSS VL: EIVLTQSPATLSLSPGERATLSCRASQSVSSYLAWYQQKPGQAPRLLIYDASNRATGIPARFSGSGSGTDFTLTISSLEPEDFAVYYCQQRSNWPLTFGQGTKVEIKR = 9.30
anti-PSMA mAb-DOTA (site specific glycan azide clicked with DOTA-GA-DBCO) (antibody, human IgG4 S228P, kappa, F234A L235A, V domains shown, Fc glycan trimmed to the innermost GlcNAc, GalNAz azido sugar added, clicked with unchelated DOTA-GA-DBCO; CAR 2, Human IgG4; also called anti-PSMA mAb (glycan) mAb-DOTA) VH: EVQLLESGGGLVQPGGSLRLSCAASGFTFKSDAMHWVRQAPGKGLEWVSEISGSGGYTNYADSVKGRFTISRDNSKNTLYLQMNSLRAEDTAVYYCARDSYDSSLYVGDYFDYWGQGTLVTVSS VL: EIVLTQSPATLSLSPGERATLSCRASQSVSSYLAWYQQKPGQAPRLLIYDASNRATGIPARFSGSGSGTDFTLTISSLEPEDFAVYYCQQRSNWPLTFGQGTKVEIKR = 9.15

// next item, pEC50 requested
Exercise: Quick check: pEC50 of anti-PSMA mAb-DOTA (site specific MTG azide clicked with DOTA-GA-DBCO) (antibody, human IgG4 S228P, kappa, F234A L235A, V domains shown, deglycosylated with PNGase F; 3-azido propylamine at Gln295 by microbial transglutaminase, clicked with unchelated DOTA-GA-DBCO; CAR 2, Human IgG4; also called anti-PSMA mAb (MTG) mAb-DOTA) VH: EVQLLESGGGLVQPGGSLRLSCAASGFTFKSDAMHWVRQAPGKGLEWVSEISGSGGYTNYADSVKGRFTISRDNSKNTLYLQMNSLRAEDTAVYYCARDSYDSSLYVGDYFDYWGQGTLVTVSS VL: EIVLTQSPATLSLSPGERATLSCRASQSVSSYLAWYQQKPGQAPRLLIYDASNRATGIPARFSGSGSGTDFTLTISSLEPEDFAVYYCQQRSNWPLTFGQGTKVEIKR ?
Solution: 8.17
